These measurements were taken from the supplement of paper PMC10307832.

- Test system: HCC-827
- assay_notes: relative viability (nuclei count vs DMSO), 5 days (fraction); higher = more cells survive
- measurement_conditions: first compound 1 µM
reported_metric: relative viability

So what does the record say about relative viability for NC(=O)Nc1cc(-c2cccc(F)c2)sc1C(=O)N[C@H]1CCCNC1 [AZD7762] + COc1cccc2cc(-c3nc([C@H]4CC[C@H](C(=O)O)CC4)n4ncnc(N)c34)[nH]c12 [OSI-027] (partner 0.5 µM) ?
0.537

// relative viability lookup, key: NC(=O)Nc1cc(-c2cccc(F)c2)sc1C(=O)N[C@H]1CCCNC1 [AZD7762] + Cc1nc(NC(=O)N2CCC[C@H]2C(N)=O)sc1-c1ccnc(C(C)(C)C(F)(F)F)c1 [Alpelisib] (partner 2 µM)
0.659

For the compound NC(=O)Nc1cc(-c2cccc(F)c2)sc1C(=O)N[C@H]1CCCNC1 [AZD7762] + CCNC(=O)c1noc(-c2cc(C(C)C)c(O)cc2O)c1-c1ccc(CN2CCOCC2)cc1 [Luminespib] (partner 0.01 µM) , what relative viability is on record?
0.213

Would you mind telling me what relative viability value was observed for NC(=O)Nc1cc(-c2cccc(F)c2)sc1C(=O)N[C@H]1CCCNC1 [AZD7762] + CC(=O)Nc1cccc(-n2c(=O)n(C3CC3)c(=O)c3c(Nc4ccc(I)cc4F)n(C)c(=O)c(C)c32)c1 [Trametinib] (partner 0.02 µM) ?
0.376

----------
- Test system: NCI-H650
- assay_notes: relative viability (nuclei count vs DMSO), 5 days (fraction); higher = more cells survive
- measurement_conditions: first compound 2.53 µM
What relative viability was measured for each of the following?

Find relative viability (NCI-H650) for the entry Oc1nc(-c2ccc(C(F)(F)F)cc2)nc2c1CSCC2 [XAV939] + O=C(c1cc(Cc2n[nH]c(=O)c3ccccc23)ccc1F)N1CCN(C(=O)C2CC2)CC1 [Olaparib] (partner 8 µM)
0.372

Provide the documented relative viability with NCI-H650 as the system for Oc1nc(-c2ccc(C(F)(F)F)cc2)nc2c1CSCC2 [XAV939] + CC(=O)c1c(C)c2cnc(Nc3ccc(N4CCNCC4)cn3)nc2n(C2CCCC2)c1=O [Palbociclib] (partner 0.5 µM)
0.303

# query: relative viability | item C=C1C(=O)O[C@@H](CCCCCCCC)[C@@H]1C(=O)O [C-75] + O=C(c1cc(Cc2n[nH]c(=O)c3ccccc23)ccc1F)N1CCN(C(=O)C2CC2)CC1 [Olaparib] (partner 8 µM) | system: NCI-H650
0.397

----------
What relative viability was measured for each of the following?
- Tested on: COR-L23
- assay_notes: relative viability (nuclei count vs DMSO), 5 days (fraction); higher = more cells survive
- measurement_conditions: first compound 0.253 µM
Write no unit; give the number alone.

Query: relative viability; subject: C=C1C(=O)O[C@@H](CCCCCCCC)[C@@H]1C(=O)O [C-75] + Cc1cc(Nc2cc(N3CCN(C)CC3)nc(Sc3ccc(NC(=O)C4CC4)cc3)n2)n[nH]1 [Tozasertib] (partner 0.1 µM)
0.267

Reported relative viability, molecule Oc1nc(-c2ccc(C(F)(F)F)cc2)nc2c1CSCC2 [XAV939] + N=C(N)NC(=N)NCCc1ccccc1 [Phenformin] (partner 250 µM) : ____
0.44

Value lookup for relative viability; key = Oc1nc(-c2ccc(C(F)(F)F)cc2)nc2c1CSCC2 [XAV939] + O=C(c1cc(Cc2n[nH]c(=O)c3ccccc23)ccc1F)N1CCN(C(=O)C2CC2)CC1 [Olaparib] (partner 8 µM)
0.386

Would you mind telling me what relative viability value was observed for C=C1C(=O)O[C@@H](CCCCCCCC)[C@@H]1C(=O)O [C-75] + COc1cccc2cc(-c3nc([C@H]4CC[C@H](C(=O)O)CC4)n4ncnc(N)c34)[nH]c12 [OSI-027] (partner 0.5 µM) ?
0.886
